- System: K4 kissing-loop RNA reporter
- testProtocol: apparent KD of K4 kissing-loop reporter; higher = weaker reporter binding
- appliedConditions: Eterna round: R107; input ligand: tryptophan 2.4 mM
experimentalReadout: apparent KD of K4 kissing-loop reporter (nM)
Give your result in nM as a bare value.

Q: Which apparent KD of K4 kissing-loop reporter value is on record for UGAUACCAGACGGCCGCCACUCCUGCAGUCAAAAGACUGCUAAAGGAAAUCGUCCAGUGAUGUUGGAGGACCGGGUCUGGUAUCU [TrypBX 16 #SwitchBubble #Palindromic #StaticStem] ?
A: 403

Q: Reported apparent KD of K4 kissing-loop reporter for UGGACCUGACUCGAUAAGAGUCAAGGAGAUACCAGCCACGAAAGUGGCCCUUGGCAGCUCUGCCAGUGAUGUUGGUCAAGGUCCU [#SwitchBubble 7 #StaticStem] : what is it?
A: 776

Q: Which apparent KD of K4 kissing-loop reporter reading was recorded for the sequence AGCGGCCAGUCGGCCGCCACUCCGGGCAGUGAUGUUGCGAAGUGUCUACUAGAGUGAUGUUCUAAGAGGACCGGGACUGACGUAU [Exclusion Tryptophan B Gf 11] ?
A: 332

Q: Requested field: apparent KD of K4 kissing-loop reporter. Item: AAUUUAUUAACUGAUACCAGACUUUAUUAUUUGUAAAUUACUAGUGAUGUUAGUGUUUCUGUCCCUUGGCAGCAGUAUUUAUUAA [JR_SSTheophyB_Sub024]
A: 70.5

Q: What does the data say about its apparent KD of K4 kissing-loop reporter? Entry: AUAGGAUUGCGAGGAUAUCCUUCCCACGUCGAAGUACCGUGCUUGAUGGAGUGAUGUUCGAUCAGAGGAGAAGGUGCGGUUUUGU [Same State FMN B GF24]
A: 944

Q: Bench note: what apparent KD of K4 kissing-loop reporter did GGAGCAGGUGAAGGAUAUCCCGGGCCAGAGUGAUGUUCUGGAUCCCUUGCCGUUUCUAAACGGGUGGGAGAAGGUCACUGAUAAG [Bibimati] show?
A: 164

====

- System: MS2 coat protein
- testProtocol: apparent KD of MS2 coat protein; higher = weaker reporter binding
- appliedConditions: Eterna round: R107; input ligand: theophylline 20 uM
Give fulfilled when the value for apparent KD of MS2 coat protein is at least 70 nM. Give not fulfilled when it is less.

Q: Is apparent KD of MS2 coat protein at least 70 nM? Consider ACAUGAGGAUCACCCAUGUCACUCGUGUUCCGAGGACCGGUACGGCCGCCACUCGGUCCUCGCGAGGAUGGUCAAAGACUAUCCA [Omei Trp A SS B v2]
A: not fulfilled

Q: Check this sequence for apparent KD of MS2 coat protein at or above 70 nM: `CCGGCCAAUUAGAAAUUAAUUGGCCGGAAACGAGGACCGGUACGGCCGCCACUCGUGGCGGGAGAAACAUGAGGAUCACCCAUGU`
A: not fulfilled

Q: Check this sequence for apparent KD of MS2 coat protein at or above 70 nM: AUCGUACCUGAUGAUACCAGCAAGUGAUCAUAACAUGAGGAUCACCCAUGUAAUCAGUGAUGCCCUUGGCAGCAUAAUCGAUACA [Same State - Theophylline B (Freestyle 4)]
A: fulfilled

Q: apparent KD of MS2 coat protein >= 70 nM for UGACGAUACCUGGAUACCAGCGACAUGAGGAUCACCCAUGUAUGAGGAUCAGCCAUGUUAUGCCCUUGGCAGCCACGAAGGUCUU [CSCMULLIN] ?
A: not fulfilled

Q: Does AGGUAUGAUCCGGAUACCAGCGAACAUGAGGAUCACCCAUGUGACCUGAGAUAGGCUCUACGCCCUUGGCAGCCGCGAUCGCAGA [Same State Theophylline B GF11] have a reported apparent KD of MS2 coat protein of at least 70 nM?
A: not fulfilled

Q: Does apparent KD of MS2 coat protein meet or surpass 70 nM for UAAUAAAUAAAUCCAAGGUGUAGGUCAGAUACCAGCCAGAUAACUGGCCCUUGGCAGCUGAAUAAACCUGAGGAACACCCAGGUA [TheoAS 24 #OpenEnded #MS2Late #AlternativeMS2] ?
A: not fulfilled

Q: Quick check: does GAUGAUAUUGCAGAUACCAGACACAUGAGGAUCACCCAUGUGUCCUCGCCAGCGGCAUGUGUCCCUUGGCAGCUGCGAUAUCAUC [Colombia] have apparent KD of MS2 coat protein greater than or equal to 70 nM?
A: not fulfilled

Q: Please tell me: is the sequence UCGGAGAAGUCGGCCGCCACUGAACUCUUGUUCUACAUGAGGAUCACCCAUGUUCCUUUGUUUAACAGGACCGGGACUUAUACGA [JR_SSTryptoB_Sub009] at or over 70 nM in terms of apparent KD of MS2 coat protein?
A: fulfilled

Q: // inclusive: apparent KD of MS2 coat protein at least 70 nM? input: AUGGCGUUGGUGUAGCUGUGAAAUGGCGAUACCAGCGUGGAAACACGCCCUUGGCAGCGCCAAAACAUGAGGAUCACCCAUGUUA [Hradec]
A: not fulfilled

Q: Check if apparent KD of MS2 coat protein >= 70 nM (inclusive). Item: AGUUACUCGAACAUGGUUGACGAGUGGCAACGAGGACCGGUACGGCCGCCACUCGAAUAAACAUGAGGAUCACCCAUGUACAAAU [T''-M'-T'-T-MS2 - Design 10.b]
A: fulfilled

Q: Confirm if apparent KD of MS2 coat protein reported for the sequence AAUCAUAACUGAAGGAGCGUCUAUAUUACAUGAGGAUCACCCAUGUUUAUAUGGUAUUAUAGACAGGUAGGUCGCAGAUUUUUUA [JR_SSArginiB_Sub017] is 70 nM or above.
A: not fulfilled

Q: Item AGGCAGUAGGUGAUCCACUGCCAAGGUGAUACCAGCAUCGAAAGAUGCCCUUGGCAGCACCAACAUGAGGAUCACCCAUGUAAUA [(MT)''-(M)'-(T')-(Theo)-(Ms2)_Design1/22_9] with apparent KD of MS2 coat protein of 70 nM or above?
A: fulfilled

Q: I'd appreciate it if you could say whether GGUACAUGAGGAUCACCCAUGUAUUAGUGCCGAGGACCGGUACGGCCGCCACUCGCUUCACAUGAGGAUCACCCAUGUGUCACUG [SSTA DOUBLE!!! :-D #14] has apparent KD of MS2 coat protein at least equal to 70 nM.
A: not fulfilled

Q: Entry ACAUGAGGCUCACCCAUGUGUAGUGGGUGGCGAGGACCGGUACGGCCGCCACUCGGCAACAUGAGGAUCACCCAUGUAAGGCCCU [RNA Blob] : is its apparent KD of MS2 coat protein no less than 70 nM?
A: fulfilled

====

- Tested on: K4 kissing-loop RNA reporter
- testProtocol: apparent KD of K4 kissing-loop reporter; higher = weaker reporter binding
- appliedConditions: Eterna round: R107; input ligand: none
experimentalReadout: apparent KD of K4 kissing-loop reporter (nM)
// return numeric value only (unit: nM, not printed)

Q: State its apparent KD of K4 kissing-loop reporter on K4 kissing-loop RNA reporter: CAUACGCAUGGAGGAUAUGAGAUUUCUCAUGUCAUUUAAUAUUCUCAGUGAUGUUGAGAUUUUGGCUCAGAAGGCCAUGUGUAUG [Ex FMN B 19]
A: 281

Q: I'm curious: which apparent KD of K4 kissing-loop reporter was measured for `GGUAGCAUGGCGGCCGCCACUAUCCUUCAUGGUUGACAUUAAGGAUAGCAUAGUGAUGUUAUGAAUAGGACCGGGCCAUGCUACC` tested on K4 kissing-loop RNA reporter?
A: 163

Q: Kindly state the measured apparent KD of K4 kissing-loop reporter obtained for AAAGUGUCAGCACGAGUGAUGUUCGACGAUACCAGCCUCGAUAGAGGCCCUUGGCAGCGUAAAAGUCAAGGGCUGGCACAUAAAA [#SwitchBubble 5 #K4Early] with K4 kissing-loop RNA reporter.
A: 1300

Q: Look up apparent KD of K4 kissing-loop reporter with K4 kissing-loop RNA reporter for this sequence: CCUUUCUGUUACGAUACCAGUCUAAUAUAUUUGAUCAAUACCCUCGCCGAGUGAUGUUCGGACCCUUGGCAGCGUCUGGGACAGG [aazwmullin]
A: 493

Q: Could you share what apparent KD of K4 kissing-loop reporter was measured for `UGACUGGACUGAAGGAGCGCUGAAGGAGCGUAAGCAGUGAUGUUGCUUACAGGUAGGUCGCAGCAGGUAGGUCGCAGUCUAGUCU` , tested on K4 kissing-loop RNA reporter?;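 note: bound reporter read as fluorescence of individual clusters on recovered sequencing chips by microscopy, with normalized cluster intensities fitted with a binding model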
A: 93.4

====

- Tested on: MS2 coat protein
- testProtocol: apparent KD of MS2 coat protein; designed switch direction (-1 OFF switch, 1 ON switch): -1; higher = weaker reporter binding
- appliedConditions: Eterna round: R95; input ligand: FMN 200 uM
experimentalReadout: apparent KD of MS2 coat protein (nM)
Reply numerically in nM, unit not repeated.

Q: Which apparent KD of MS2 coat protein reading was recorded for the sequence GCAGUGCGAGGAUAUACAUGAGGAUCACCCAUGUGAGAGAAAUAAGUGAGGAAGAAAAGUAGAAGGCGCGUUGG [Mat - Exclusion 3 - Mod of Salish D69] (puzzle: Exclusion 3) ?
A: 95.2

Q: What value of measured apparent KD of MS2 coat protein is listed for AAAUAACAAGCAGGAUCCUACAUGAGGAUCACCCAUGUGCUCGUCUUAUAAAGUACUAUCACGAAAGUGAUAGUACU [Mat - Sensor v3 - turn-off var 1 - Eli Mod - D72] (puzzle: Sensor v3, turn-off variant 1) ?
A: 153

Q: Given the sequence UAGAUACAUGAGGAUCACCCAUGUGAGGAUAUGAAUAAGAAUAGAUAAGAUAGUAGAAUCAGAAGGCACAAUGG [Starry Exclusion 1.2] (puzzle: Exclusion 1) , what is its reported apparent KD of MS2 coat protein?
A: 70.1
